- System: SF-268 CNS
- PROTOCOL DESCRIPTION: NCI tumour cell line growth inhibition, 48 h
// values below are reported TGI

{"MOLECULE": "C=CCN(N=O)C(=O)N(CCCC(NC(C)=O)C(=O)NCc1ccccc1)Cc1ccccc1 (configuration not stated)", "TGI": "> 100 µM"}
{"MOLECULE": "Nc1ccc(C2NC(=O)Cc3c2ccc2ccccc32)cc1 (configuration not stated)", "TGI": "> 100 µM"}
{"MOLECULE": "O=c1c(Sc2c(O)c3ccccc3c3ccccc3c2=O)c(O)c2ccccc2c2ccccc12", "TGI": "99 µM"}
{"MOLECULE": "CN(CC(=O)O)c1ccc(/C=C/c2ccnc3ccccc23)cc1", "TGI": "61.1 µM"}
{"MOLECULE": "CC(=O)Nc1ccc(/C=N\\N2C(=O)c3ccccc3C2=O)cc1", "TGI": "> 100 µM"}
{"MOLECULE": "O=Cc1cn(Cc2cccc(Cl)c2)c2ccccc12", "TGI": "26.3 µM"}
{"MOLECULE": "C=CC1=C[C@@H]2[C@@H]3O[C@]4(CC[C@H](O4)[C@@H](C)C[C@@H](O)C3=O)C[C@H](O)C3=NCC[C@@]32CC1", "TGI": "0.00575 µM"}
{"MOLECULE": "NC1=NNC2(C(=O)N1)c1ccccc1-c1ccccc12", "TGI": "> 10 µM"}
{"MOLECULE": "c1ccc(-c2cs[s+]c2)cc1", "TGI": "> 100 µM"}
{"MOLECULE": "O=C1CCCCC1=C(I)I", "TGI": "57.2 µM"}
{"MOLECULE": "OCC(O)C(OC1OC(CO)C(O)C(O)C1O)c1nn(-c2ccccc2)c2nc3cc(Cl)c(Cl)cc3cc12 (configuration not stated)", "TGI": "> 100 µM"}
{"MOLECULE": "CC1=C(O)C(=O)C[C@]2(C)[C@H]3CC=C4[C@@H]5CC(C)(C)CC[C@@H]5C(=O)[C@H](O)[C@@]4(C)[C@]3(C)CC[C@@H]12", "TGI": "> 50 µM"}
{"MOLECULE": "C[C@]12CC[C@@H]3c4ccc(O)cc4CC[C@H]3[C@@H]1CC[C@@H]2NS(=O)(=O)c1cccc(C(F)(F)F)c1", "TGI": "18.5 µM"}
{"MOLECULE": "O=C1/C(=C/c2ccc([N+](=O)[O-])o2)Oc2ccc(Br)cc21", "TGI": "4.16 µM"}
{"MOLECULE": "Cc1nc(-n2[nH]c(C)c(CCO)c2=O)[nH]c(=O)c1CCO", "TGI": "> 100 µM"}
{"MOLECULE": "COC(=O)C12OC(C)(C(CC(=O)OC(C)(C)C)C1=O)C1C(=O)N(c3ccccc3)C(=O)C12 (configuration not stated)", "TGI": "> 100 µM"}
{"MOLECULE": "C[C@H]1[C@H](C)CC[C@]2(C(=O)N3CCN(C)CC3)CC[C@]3(C)C(=CC[C@@H]4[C@@]5(C)C/C(=C/c6cccnc6)C(=O)C(C)(C)[C@@H]5CC[C@]43C)[C@H]12", "TGI": "3.05 µM"}
{"MOLECULE": "CCOC(=O)c1cc(C2CCN(CC(C)CC)C2=S)c(-c2cc(C)no2)[nH]1 (configuration not stated)", "TGI": "> 100 µM"}
{"MOLECULE": "N#CCCSC1SC(=C2SC3=C(SCCS3)S2)SC1SCCC#N (configuration not stated)", "TGI": "> 100 µM"}
{"MOLECULE": "Cn1c(=O)c(Oc2ccc(F)cc2F)cc2cnc(NC(CO)CO)nc21", "TGI": "> 25 µM"}
{"MOLECULE": "CN(C)CCCNc1ncnc2nc[nH]c12", "TGI": "> 100 µM"}
{"MOLECULE": "Cc1ccccc1NC(=O)C(=O)CC(=O)c1sc(Nc2ccccc2[N+](=O)[O-])nc1C", "TGI": "> 100 µM"}
{"MOLECULE": "NC(=O)c1oc([N+](=O)[O-])c(-c2ccccc2)c1-c1ccccc1", "TGI": "> 100 µM"}
{"MOLECULE": "O=C(O)C(O)Cc1ccccn1 (configuration not stated)", "TGI": "> 100 µM"}
{"MOLECULE": "COc1ccc(C(=O)COc2cccc(/C=C3\\CSc4ccccc4C3=O)c2)cc1", "TGI": "5.77 µM"}
{"MOLECULE": "Cc1cnc(/N=c2\\sc(C)cn2-c2ncc(C)s2)s1", "TGI": "> 100 µM"}
{"MOLECULE": "COc1cc(C(O)c2nc3ccccc3s2)cc(OC)c1OC (configuration not stated)", "TGI": "> 100 µM"}
{"MOLECULE": "COc1ccc2cc1Oc1ccc(cc1)C[C@@H]1c3cc(c(OC)cc3CCN1C)Oc1c(OC)c(OC)cc3c1[C@@H](C2)N(C)CC3", "TGI": "52.4 µM"}
{"MOLECULE": "Cc1nn(C(=O)c2ccncc2)c2c1C(c1ccc(Cl)cc1)SC(N)=N2 (configuration not stated)", "TGI": "> 10 µM"}
{"MOLECULE": "COc1ccc(-c2cnnn2-c2cc(OC)c3c(c2)OCO3)cc1", "TGI": "> 100 µM"}
{"MOLECULE": "Cc1nc2ccc(F)cc2c2c1CCO2", "TGI": "> 100 µM"}
{"MOLECULE": "C=C1C(=O)OC2C1CC[C@H](C)C13OC(=O)CC1[C@@]23C (some centres not stated)", "TGI": "> 100 µM"}
{"MOLECULE": "O=C(/C=C/c1cccs1)c1ccc(Nc2nc(Nc3ccc(F)cc3)nc(Nc3ccc(F)cc3)n2)cc1", "TGI": "> 100 µM"}
{"MOLECULE": "COc1ccc(-c2cc(-c3ccc(Nc4ccnc5cc(Cl)ccc45)cc3)nc(N)c2C#N)cc1", "TGI": "> 100 µM"}
{"MOLECULE": "Cc1ccc(NC(=O)c2cc3ccccc3c(N=Nc3ccccc3O)c2O)c(C)c1", "TGI": "10.5 µM"}
{"MOLECULE": "Nc1ncnc2c1ncn2CC(O)C(=O)O (configuration not stated)", "TGI": "> 100 µM"}
{"MOLECULE": "O=C(O)CCSCCCN1C(=O)c2ccccc2C1=O", "TGI": "> 100 µM"}
{"MOLECULE": "O=C(CCCCCCSc1nc(-c2ccccc2)cc(-c2ccccc2)n1)NO", "TGI": "7.42 µM"}
{"MOLECULE": "CC(C)C1OC2(C)OC(=N)C1(C#N)C(C#N)(C#N)C2C (configuration not stated)", "TGI": "56.4 µM"}
{"MOLECULE": "COc1ccccc1N1C(Cl)C(=O)C1c1c[nH]c2ccccc12 (configuration not stated)", "TGI": "> 100 µM"}
{"MOLECULE": "COC(=O)[C@@H](O)[C@]1(C(=O)OC)C2O[C@@H](OC)[C@@H]1CCCCCC[C@H]2O", "TGI": "> 100 µM"}
{"MOLECULE": "Cc1cc(NC(=O)NC(=O)c2ccccc2N)ccc1Oc1ncc(Br)cn1", "TGI": "> 67.3 µM"}
